# Study Target: recombinant human MAO-B (monoamine oxidase-B) (Homo sapiens)
# Construct: purchased Sigma-Aldrich
# Sequence (P27338 whole entry): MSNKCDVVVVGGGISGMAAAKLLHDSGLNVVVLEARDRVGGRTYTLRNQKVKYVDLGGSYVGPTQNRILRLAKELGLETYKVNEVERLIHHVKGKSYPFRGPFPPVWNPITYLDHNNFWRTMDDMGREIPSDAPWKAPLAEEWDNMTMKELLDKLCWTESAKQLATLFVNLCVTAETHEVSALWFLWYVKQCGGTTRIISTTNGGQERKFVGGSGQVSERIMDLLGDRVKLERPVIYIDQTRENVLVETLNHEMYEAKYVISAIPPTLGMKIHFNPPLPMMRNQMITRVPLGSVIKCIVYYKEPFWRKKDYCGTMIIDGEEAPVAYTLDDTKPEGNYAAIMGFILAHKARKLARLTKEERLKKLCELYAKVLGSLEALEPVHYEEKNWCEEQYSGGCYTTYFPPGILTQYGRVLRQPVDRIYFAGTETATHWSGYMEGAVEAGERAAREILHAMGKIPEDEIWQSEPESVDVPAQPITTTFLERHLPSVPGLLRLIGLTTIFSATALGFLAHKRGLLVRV
# Test Description: Amplex Red HRP-coupled amine oxidase assay, recombinant human MAO-B
# Format: biochemical
# Recorded Conditions: 1 mM benzylamine substrate, read-out: Inhibitory activity (IC50, nM) MAO-B
Counter-ions that a name gives are not always drawn.
Measured Attribute: IC50 (nM)
State the answer as a number, implicitly in nM.

Note to self: IC50 recorded for NC/C=C(\F)Cn1nnc2c(-c3cccc(S(=O)(=O)N4CCC(F)(F)C4)c3)cccc21 [Example 103, hydrochloride] was 23500

The compound identified as CNS(=O)(=O)c1ccc(OC)c(-c2cc(C(=O)OC)cc3c2nnn3C/C(F)=C/CN)c1 [Example 117, hydrochloride] registered its IC50 at 46600

get_value(item= CS(=O)(=O)c1cccc(-c2cc(F)cc3c2ncn3C/C(F)=C/CN)c1 [Example 3, hydrochloride] , readout=IC50) returns 71200

----------
# Study Target: recombinant human MAO-A (monoamine oxidase-A) (Homo sapiens)
# Construct: purchased Sigma-Aldrich
# Sequence (P21397 whole entry): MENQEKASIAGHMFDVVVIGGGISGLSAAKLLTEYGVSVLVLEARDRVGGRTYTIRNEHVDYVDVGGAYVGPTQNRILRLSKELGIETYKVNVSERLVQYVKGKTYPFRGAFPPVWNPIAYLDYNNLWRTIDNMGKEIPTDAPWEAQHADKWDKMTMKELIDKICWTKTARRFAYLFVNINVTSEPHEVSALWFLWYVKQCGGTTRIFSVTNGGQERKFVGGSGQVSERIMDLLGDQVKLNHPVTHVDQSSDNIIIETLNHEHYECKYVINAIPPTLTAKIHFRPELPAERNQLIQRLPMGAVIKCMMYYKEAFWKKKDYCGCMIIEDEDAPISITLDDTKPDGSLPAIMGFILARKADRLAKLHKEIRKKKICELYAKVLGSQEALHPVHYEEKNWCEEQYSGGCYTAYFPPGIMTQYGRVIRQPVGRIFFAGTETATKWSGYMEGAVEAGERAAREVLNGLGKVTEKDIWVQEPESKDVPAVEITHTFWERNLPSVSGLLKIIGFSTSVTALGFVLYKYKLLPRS
# Test Description: Amplex Red HRP-coupled amine oxidase assay, recombinant human MAO-A
# Assay type: biochemical
# Recorded Conditions: 0.5 mM tyramine substrate, read-out: Inhibitory activity (IC50, nM) MAO-A
Structures can show the parent of a compound that is named as a salt.
Measured Attribute: IC50

Documented IC50 of COc1ccc(S(=O)(=O)NC2CC2)cc1-c1cccc2c1nnn2C/C(F)=C/CN [Example 108, hydrochloride] : > 100000 nM

Looking up COC(=O)c1cc(-c2cccc(S(=O)(=O)N3CCCC3)c2)c2ncn(C/C(F)=C/CN)c2c1 [Example 23, hydrochloride] , I see its IC50 listed as > 100000 nM

compound NC/C=C(\F)Cn1cnc2c(-c3cccc(S(=O)(=O)NC4CC4)c3)cc(F)cc21 [Example 9, hydrochloride] , IC50 observed: 48600 nM

Kindly note the recorded IC50 for Cc1cc(-c2cc(C#N)cc3c2ncn3C/C(F)=C/CN)n(C)n1 [Example 194, hydrochloride] , which is 36800 nM

Entry COC(=O)c1cc(-c2cccc(S(=O)(=O)NC3CC3)c2)c2ncn(C/C(F)=C/CN)c2c1 [Example 29, hydrochloride] — recorded IC50 = > 100000 nM

Reported IC50 ( CC(=O)c1ccc(F)c(-c2cc(C(F)(F)F)cc3c2ncn3C/C(F)=C/CN)c1 [Example 169, hydrochloride] ) = 26900 nM

Per the records, this compound ( CCS(=O)(=O)c1cccc(-c2cc(C(=O)OC)cc3c2ncn3C/C(F)=C/CN)c1 [Example 34, hydrochloride] ) has IC50 equal to > 100000 nM

IC50 recorded for this compound, CS(=O)(=O)c1cccc(-c2cc(F)cc3c2ncn3C/C(F)=C/CN)c1 [Example 3, hydrochloride] , is > 100000 nM

Per the records, this compound ( N#Cc1cc(-c2ccn(CCO)n2)c2ncn(C/C(F)=C/CN)c2c1 [Example 195, hydrochloride] ) has IC50 equal to > 100000 nM

The reported value for COC(=O)c1cc(-c2cc(S(=O)(=O)C(F)(F)F)ccc2C)c2ncn(C/C(F)=C/CN)c2c1 [Example 35, hydrochloride] in terms of IC50 is > 100000 nM

Record summary for CNS(=O)(=O)c1cccc(-c2cc(C(=O)OC)cc3c2ncn3C/C(F)=C/CN)c1 [Example 30, hydrochloride] : reported IC50 = > 100000 nM

Lab note: NC/C=C(\F)Cn1cnc2c(-c3cccc(S(=O)(=O)N4CCCC4)c3)cc(F)cc21 [Example 7, hydrochloride] gave IC50 of 26500 nM

Form: compound = Cn1nccc1-c1cc(C#N)cc2c1ncn2C/C(F)=C/CN [Example 191, hydrochloride] ; IC50 = > 100000 nM

Please fill in: IC50 reported for COC(=O)c1cc(-c2cccc(P(C)(C)=O)c2)c2ncn(C/C(F)=C/CN)c2c1 [Example 38, hydrochloride] = > 100000 nM

The compound listed as CN(C)S(=O)(=O)c1cccc(-c2cc(C#N)cc3c2ncn3C/C(F)=C/CN)c1 [Example 182, hydrochloride] has a reported IC50 of > 100000 nM
